Tested on: 379773-124-R-J2-PDC spheroid viability
Assay: Anticancer human tumor 379773-124-R-J2-PDC patient-derived endometrial carcinoma cell line growth inhibition [POLQ]
Details: second compound 0.1 µM; first compound 3.16 µM; active compounds read low; spheroids with HUVEC and MSC
MEASURED_PARAMETER: viability, T/C (%)
Give the quantity in %, number only.

[Q] Could you share which viability, T/C value was measured for C#Cc1c(F)ccc2cc(O)cc(-c3ncc4c(N5CC6CCC(C5)N6)nc(OCC56CCCN5CC(F)C6)nc4c3F)c12 (stereo not drawn) + Nc1ccc(C#CCN(C(=O)Cc2ncc(C(F)(F)F)cc2C(F)(F)F)c2ccc(F)cc2)nn1 ?
[A] 103

[Q] Could you share which viability, T/C value was measured for CC1COCCN1c1cc(C2(O)CC3CCC(C2)O3)c2cnn(-c3ccn[nH]3)c2n1 (stereo not drawn) + Nc1ccc(C#CCN(C(=O)Cc2ncc(C(F)(F)F)cc2C(F)(F)F)c2ccc(F)cc2)nn1 ?
[A] 10.2

[Q] Could you share which viability, T/C value was measured for CC(C)n1c(=O)n(C)c2cnc3cc(F)c(-c4ccc(OCCCN5CCCCC5)nc4)cc3c21 + Nc1ccc(C#CCN(C(=O)Cc2ncc(C(F)(F)F)cc2C(F)(F)F)c2ccc(F)cc2)nn1 ?
[A] 78.9

====

System: 379773-124-R-J2-PDC spheroid viability
Test: Anticancer human tumor 379773-124-R-J2-PDC cell line growth inhibition [POLQ];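 also: spheroids exposed to drugs for seven days before readout; percent viability relative to DMSO vehicle control taken as 100%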
Settings: second compound 0.1 µM; first compound 0.316 µM; active compounds read low; spheroids with HUVEC and MSC
MEASURED_PARAMETER: viability, T/C (%)
Give the quantity in %, number only.

[Q] Could you share which viability, T/C value was measured for CCc1cc2c(N3CCc4c(cc(Cn5ccnc5)cc4-c4cn(C)nc4C(F)(F)F)C3=O)cc(C)nc2c(OC)n1 + COC1C(OC(N)=O)C(O)C(Oc2ccc3c(O)c(NC(=O)c4ccc(O)c(CC=C(C)C)c4)c(=O)oc3c2C)OC1(C)C ?
[A] 58.1

[Q] Could you share which viability, T/C value was measured for CCc1cc2c(N3CCc4c(cc(Cn5ccnc5)cc4-c4cn(C)nc4C(F)(F)F)C3=O)cc(C)nc2c(OC)n1 + Cc1cccc(N(C)C(=O)C2C(O)CCN2c2nc(C)cc(C(F)(F)F)c2C#N)c1 ?
[A] 56.1

[Q] Could you share which viability, T/C value was measured for CC(C)n1c(=O)n(C)c2cnc3cc(F)c(-c4ccc(OCCCN5CCCCC5)nc4)cc3c21 + COC1C(OC(N)=O)C(O)C(Oc2ccc3c(O)c(NC(=O)c4ccc(O)c(CC=C(C)C)c4)c(=O)oc3c2C)OC1(C)C ?
[A] 87.5

[Q] Could you share which viability, T/C value was measured for C=CC(=O)N1CCN(c2nc(=O)n(-c3c(C)ccnc3C(C)C)c3nc(-c4c(O)cccc4F)c(F)cc23)C(C)C1 (stereo not given) + Nc1ccc(C#CCN(C(=O)Cc2ncc(C(F)(F)F)cc2C(F)(F)F)c2ccc(F)cc2)nn1 ?
[A] 104

[Q] Could you share which viability, T/C value was measured for CCCS(=O)(=O)Nc1ccc(F)c(C(=O)c2c[nH]c3ncc(-c4ccc(Cl)cc4)cc23)c1F + Nc1ccc(C#CCN(C(=O)Cc2ncc(C(F)(F)F)cc2C(F)(F)F)c2ccc(F)cc2)nn1 ?
[A] 87.2

====

Tested on: 379773-124-R-J2-PDC spheroid viability
Experiment: Anticancer human tumor 379773-124-R-J2-PDC cell line growth inhibition [POLQ];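 also: spheroids exposed to drugs for seven days before readout; percent viability relative to DMSO vehicle control taken as 100%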
Details: second compound 1 µM; first compound 3.16 µM; active compounds read low; spheroids with HUVEC and MSC
MEASURED_PARAMETER: viability, T/C (%)
Give the quantity in %, number only.

[Q] Could you share which viability, T/C value was measured for O=c1[nH]cc(F)c(=O)[nH]1 + Cc1cccc(N(C)C(=O)C2C(O)CCN2c2nc(C)cc(C(F)(F)F)c2C#N)c1 ?
[A] 74.2

[Q] Could you share which viability, T/C value was measured for COc1cc(C2c3cc4c(cc3C(OC3OC5COC(C)OC5C(O)C3O)C3COC(=O)C23)OCO4)cc(OC)c1O (stereo not given) + COC1C(OC(N)=O)C(O)C(Oc2ccc3c(O)c(NC(=O)c4ccc(O)c(CC=C(C)C)c4)c(=O)oc3c2C)OC1(C)C ?
[A] 12.2

[Q] Could you share which viability, T/C value was measured for O=C(Nc1ccc(O)c(NS(=O)(=O)c2ccc(F)cc2)c1)c1ccc(-c2ccccc2)cc1 + Nc1ccc(C#CCN(C(=O)Cc2ncc(C(F)(F)F)cc2C(F)(F)F)c2ccc(F)cc2)nn1 ?
[A] 93.8

[Q] Could you share which viability, T/C value was measured for C=CC(=O)N1CCN(c2nc(=O)n(-c3c(C)ccnc3C(C)C)c3nc(-c4c(O)cccc4F)c(F)cc23)C(C)C1 (stereo not given) + Nc1ccc(C#CCN(C(=O)Cc2ncc(C(F)(F)F)cc2C(F)(F)F)c2ccc(F)cc2)nn1 ?
[A] 98.8

[Q] Could you share which viability, T/C value was measured for CCc1cc2c(N3CCc4c(cc(Cn5ccnc5)cc4-c4cn(C)nc4C(F)(F)F)C3=O)cc(C)nc2c(OC)n1 + Cc1cccc(N(C)C(=O)C2C(O)CCN2c2nc(C)cc(C(F)(F)F)c2C#N)c1 ?
[A] 62.4

[Q] Could you share which viability, T/C value was measured for CCCS(=O)(=O)Nc1ccc(F)c(C(=O)c2c[nH]c3ncc(-c4ccc(Cl)cc4)cc23)c1F + Cc1cccc(N(C)C(=O)C2C(O)CCN2c2nc(C)cc(C(F)(F)F)c2C#N)c1 ?
[A] 80.3

[Q] Could you share which viability, T/C value was measured for COc1cccc2c1C(=O)c1c(O)c3c(c(O)c1C2=O)CC(O)(C(=O)CO)CC3OC1CC(N)C(O)C(C)O1 (stereo not given) + Nc1ccc(C#CCN(C(=O)Cc2ncc(C(F)(F)F)cc2C(F)(F)F)c2ccc(F)cc2)nn1 ?
[A] 1.71

[Q] Could you share which viability, T/C value was measured for Nc1ccn(C2OC(CO)C(O)C2(F)F)c(=O)n1 (stereo not given) + COC1C(OC(N)=O)C(O)C(Oc2ccc3c(O)c(NC(=O)c4ccc(O)c(CC=C(C)C)c4)c(=O)oc3c2C)OC1(C)C ?
[A] 9.07

[Q] Could you share which viability, T/C value was measured for COc1ccc([C@@H](O)c2cc(-c3ncnc4cc(N5CCOCC5)ccc34)c(F)cc2Cl)nn1 + Nc1ccc(C#CCN(C(=O)Cc2ncc(C(F)(F)F)cc2C(F)(F)F)c2ccc(F)cc2)nn1 ?
[A] 79.5

[Q] Could you share which viability, T/C value was measured for CC1COCCN1c1cc(-c2ccnn2C)c2ccnc(-c3ccn[nH]3)c2n1 (stereo not given) + Nc1ccc(C#CCN(C(=O)Cc2ncc(C(F)(F)F)cc2C(F)(F)F)c2ccc(F)cc2)nn1 ?
[A] 12.6

[Q] Could you share which viability, T/C value was measured for O=C(c1cc(Cc2n[nH]c(=O)c3ccccc23)ccc1F)N1CCN(C(=O)C2CC2)CC1 + COC1C(OC(N)=O)C(O)C(Oc2ccc3c(O)c(NC(=O)c4ccc(O)c(CC=C(C)C)c4)c(=O)oc3c2C)OC1(C)C ?
[A] 72.2

[Q] Could you share which viability, T/C value was measured for C#Cc1c(F)ccc2cc(O)cc(-c3ncc4c(N5CC6CCC(C5)N6)nc(OCC56CCCN5CC(F)C6)nc4c3F)c12 (stereo not given) + Nc1ccc(C#CCN(C(=O)Cc2ncc(C(F)(F)F)cc2C(F)(F)F)c2ccc(F)cc2)nn1 ?
[A] 106

[Q] Could you share which viability, T/C value was measured for COc1cccc2c1C(=O)c1c(O)c3c(c(O)c1C2=O)CC(O)(C(=O)CO)CC3OC1CC(N)C(O)C(C)O1 (stereo not given) + COC1C(OC(N)=O)C(O)C(Oc2ccc3c(O)c(NC(=O)c4ccc(O)c(CC=C(C)C)c4)c(=O)oc3c2C)OC1(C)C ?
[A] 1.26

[Q] Could you share which viability, T/C value was measured for CC(C)n1c(=O)n(C)c2cnc3cc(F)c(-c4ccc(OCCCN5CCCCC5)nc4)cc3c21 + Cc1cccc(N(C)C(=O)C2C(O)CCN2c2nc(C)cc(C(F)(F)F)c2C#N)c1 ?
[A] 79.1

[Q] Could you share which viability, T/C value was measured for CC1COCCN1c1cc(C2(O)CC3CCC(C2)O3)c2cnn(-c3ccn[nH]3)c2n1 (stereo not given) + COC1C(OC(N)=O)C(O)C(Oc2ccc3c(O)c(NC(=O)c4ccc(O)c(CC=C(C)C)c4)c(=O)oc3c2C)OC1(C)C ?
[A] 6.65

[Q] Could you share which viability, T/C value was measured for C=CC(=O)N1CCN(c2nc(=O)n(-c3c(C)ccnc3C(C)C)c3nc(-c4c(O)cccc4F)c(F)cc23)C(C)C1 (stereo not given) + COC1C(OC(N)=O)C(O)C(Oc2ccc3c(O)c(NC(=O)c4ccc(O)c(CC=C(C)C)c4)c(=O)oc3c2C)OC1(C)C ?
[A] 73.8

[Q] Could you share which viability, T/C value was measured for Nc1ccn(C2OC(CO)C(O)C2(F)F)c(=O)n1 (stereo not given) + Nc1ccc(C#CCN(C(=O)Cc2ncc(C(F)(F)F)cc2C(F)(F)F)c2ccc(F)cc2)nn1 ?
[A] 10.8

[Q] Could you share which viability, T/C value was measured for COc1cc(C2c3cc4c(cc3C(OC3OC5COC(C)OC5C(O)C3O)C3COC(=O)C23)OCO4)cc(OC)c1O (stereo not given) + Nc1ccc(C#CCN(C(=O)Cc2ncc(C(F)(F)F)cc2C(F)(F)F)c2ccc(F)cc2)nn1 ?
[A] 17.3

[Q] Could you share which viability, T/C value was measured for O=C(c1cc(Cc2n[nH]c(=O)c3ccccc23)ccc1F)N1CCN(C(=O)C2CC2)CC1 + Nc1ccc(C#CCN(C(=O)Cc2ncc(C(F)(F)F)cc2C(F)(F)F)c2ccc(F)cc2)nn1 ?
[A] 83.1

[Q] Could you share which viability, T/C value was measured for COc1cc(C2c3cc4c(cc3C(OC3OC5COC(C)OC5C(O)C3O)C3COC(=O)C23)OCO4)cc(OC)c1O (stereo not given) + Cc1cccc(N(C)C(=O)C2C(O)CCN2c2nc(C)cc(C(F)(F)F)c2C#N)c1 ?
[A] 9.91
